# experimental_system: Threonylcarbamoyladenosine tRNA methylthiotransferase (Homo sapiens) (UniProt Q5VV42)
# Sequence (Q5VV42 whole entry): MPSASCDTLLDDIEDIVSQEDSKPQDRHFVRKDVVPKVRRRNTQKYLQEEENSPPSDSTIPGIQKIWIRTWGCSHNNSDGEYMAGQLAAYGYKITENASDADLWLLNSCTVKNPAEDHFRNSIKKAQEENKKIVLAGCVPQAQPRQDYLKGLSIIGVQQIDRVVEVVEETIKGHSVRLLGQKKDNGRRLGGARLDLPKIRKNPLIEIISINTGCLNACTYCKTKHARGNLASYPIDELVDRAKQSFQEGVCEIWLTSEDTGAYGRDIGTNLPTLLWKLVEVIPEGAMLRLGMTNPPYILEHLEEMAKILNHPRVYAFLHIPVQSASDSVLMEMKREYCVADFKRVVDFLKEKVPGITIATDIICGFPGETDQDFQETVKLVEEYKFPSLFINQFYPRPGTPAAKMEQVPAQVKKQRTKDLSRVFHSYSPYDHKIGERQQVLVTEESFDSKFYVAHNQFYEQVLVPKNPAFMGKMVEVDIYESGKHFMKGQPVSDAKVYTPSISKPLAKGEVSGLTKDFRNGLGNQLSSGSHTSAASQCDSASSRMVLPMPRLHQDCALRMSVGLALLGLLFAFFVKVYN
# protocol_description: Rescue of mistranslation activity in CDKAL1 (unknown origin) extracted from Escherichia coli harboring MIaB deficient at 10 uM incubated for 1 hr by dual luciferase assay
reported_property: Ratio

CCCOc1ccc(C(=O)C(C)CN2CCCCC2)cc1 (racemic) :: 0.85
CCc1ccc(C(=O)C(C)CN2CCCCC2)cc1 (stereo unspecified) :: 0.7
CCc1ccc(C(=O)C(C)CN2CCSCC2)cc1 (racemic) :: 0.97
CC(CN1CCCCC1)C(=O)c1cccc(C(C)(C)C)c1 (racemic) :: 0.95
CCc1ccc(C(=O)C(C)Cc2ccncc2)cc1 (racemic) :: 1.04
CCc1ccc(C(=O)C(C)CN2CCCCCC2)cc1 (racemic) :: 1.01

Each recorded value in this set is attributed to ChEMBL document CHEMBL6153159.
